src = PubChem BioAssay AID2540

# experimental system: Sentrin-specific protease 8 (Homo sapiens) (UniProt Q96LD8)
# Sequence (Q96LD8 whole entry, looked up): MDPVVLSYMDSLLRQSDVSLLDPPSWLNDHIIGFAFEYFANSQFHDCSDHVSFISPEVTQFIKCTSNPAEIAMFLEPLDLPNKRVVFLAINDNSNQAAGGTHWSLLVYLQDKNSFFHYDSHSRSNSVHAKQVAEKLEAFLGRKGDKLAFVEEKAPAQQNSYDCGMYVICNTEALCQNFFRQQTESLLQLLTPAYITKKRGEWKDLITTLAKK
# procedure summary: blockers of human SENP8 peptidase activity – biochemical, luminescence, primary screen (AID 2540)
# particulars: purified SENP8, Z-RLRGG-aminoluciferin cleavage, at 10 µM, active compounds read high
Hit rate of the full screen: of about 330,000 compounds, about 4,100 (1.2%) were called active. Shown is part of a subset that was picked to be rich in actives.
In this section we review reported inhibition values for a set of compounds.
assay endpoint: inhibition (%)

>>> df
                                    compound  assay_endpoint  measured_number
 0    O=C1N/C(=C/c2cccs2)C(=O)N1Cc1ccc(F)cc1      inhibition              -10
 1    COc1cccc(/C=C/c2ccc3ccccc3n2)c1OC(C)=O      inhibition             17.7
 2  CC12CCC(=O)N1C(C(=O)Nc1ccc(F)c(F)c1F)CS2 (stereo unspecified)      inhibition            -5.83
 3  Cc1cc(C)c(C#N)c(SCS(=O)c2ccc(C(C)(C)C)cc2)n1 (stereo unspecified)      inhibition            -4.22
 4  CCN1C(=NCc2ccc(OC)cc2)N[C@@H](CCc2ccccc2)[C@H](C(=O)NCc2ccc(OC)cc2)[C@H]1C      inhibition            -2.38
 5  CCN(CC)C(=O)CC1(c2ccccc2OC)CCOC(C(C)C)C1 (stereo unspecified)      inhibition            -10.8
 6       CC(=O)Nc1ccccc1NC(=O)c1cc(C)cc(C)c1      inhibition            -8.13
 7         CSCc1ccc(C(=O)Nc2cc(C)cc(C)c2)cc1      inhibition             72.8
 8           CSC1=N/C(=C\C=C\c2cccs2)C(=O)S1      inhibition             53.6
 9  C=CCN(c1ccc(C(=O)Nc2cc(C)cc(C)c2)cc1)S(C)(=O)=O      inhibition             3.93
10  COc1ccc(/C=C/c2noc(-c3ccccc3OC(C)=O)n2)cc1      inhibition             88.3
